Recorded pEC50 by entry
- target: T1, Fusion protein of extracellular domain of cynomolgus monkey TIGIT and mouse IgG2a Fc fragment (cynomolgus … (cynomolgus monkey))
- T1 construct: The entry includes the signal peptide (limits not recoverable) and the mouse IgG2a Fc
- T1 sequence (chain, as listed by the source limits assumed): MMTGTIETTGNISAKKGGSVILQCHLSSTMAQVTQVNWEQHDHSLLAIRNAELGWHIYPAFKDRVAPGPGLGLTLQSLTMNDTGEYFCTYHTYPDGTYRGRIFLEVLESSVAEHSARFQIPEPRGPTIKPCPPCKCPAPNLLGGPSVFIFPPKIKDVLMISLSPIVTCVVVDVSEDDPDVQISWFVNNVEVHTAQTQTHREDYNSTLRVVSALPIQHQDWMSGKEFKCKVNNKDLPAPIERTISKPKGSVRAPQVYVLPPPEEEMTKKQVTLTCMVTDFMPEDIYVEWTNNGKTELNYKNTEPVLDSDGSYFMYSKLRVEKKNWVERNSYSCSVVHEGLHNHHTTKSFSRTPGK
- protocol: ELISA, cynomolgus monkey TIGIT ECD-mFc
pEC50: −log10 of the molar value.
readout name: pEC50

binder	measurement
TIGIT-002-H2L1 (antibody, V domains shown, Humanized anti-TIGIT antibody) VH: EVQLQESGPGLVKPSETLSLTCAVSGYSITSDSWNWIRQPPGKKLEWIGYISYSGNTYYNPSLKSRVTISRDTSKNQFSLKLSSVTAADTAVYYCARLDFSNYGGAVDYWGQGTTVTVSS VL: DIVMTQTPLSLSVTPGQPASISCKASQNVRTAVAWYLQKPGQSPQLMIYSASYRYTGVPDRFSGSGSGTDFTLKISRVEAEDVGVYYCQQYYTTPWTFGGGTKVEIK	10.06
TIGIT-002-H1L2 (antibody, V domains shown, Humanized anti-TIGIT antibody) VH: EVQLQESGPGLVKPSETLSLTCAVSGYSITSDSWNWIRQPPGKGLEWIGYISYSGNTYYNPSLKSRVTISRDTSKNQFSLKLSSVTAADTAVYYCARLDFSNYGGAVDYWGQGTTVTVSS VL: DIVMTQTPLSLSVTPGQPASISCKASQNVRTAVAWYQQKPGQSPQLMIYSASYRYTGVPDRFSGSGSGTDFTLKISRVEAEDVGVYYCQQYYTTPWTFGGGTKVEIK	10.09
TIGIT-006-H3L3 (antibody, V domains shown, Humanized anti-TIGIT antibody) VH: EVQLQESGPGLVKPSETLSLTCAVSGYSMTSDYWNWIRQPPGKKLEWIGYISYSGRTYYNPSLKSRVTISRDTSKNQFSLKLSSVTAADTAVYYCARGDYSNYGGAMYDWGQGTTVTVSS VL: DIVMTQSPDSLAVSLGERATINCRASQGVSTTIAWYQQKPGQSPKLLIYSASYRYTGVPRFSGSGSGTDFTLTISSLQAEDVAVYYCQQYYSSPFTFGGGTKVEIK	9.11
